# systemName: CD3ε homodimer protein (human, UniProt P07766 23-126, limits assumed)
# Sequence (P07766 23-126 limits assumed): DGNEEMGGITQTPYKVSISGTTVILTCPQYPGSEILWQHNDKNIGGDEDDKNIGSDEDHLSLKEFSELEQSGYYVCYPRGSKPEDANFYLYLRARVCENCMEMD
# protocolSummary: SPR, immobilized CD3ε homodimer;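 also: biacore T200 surface plasmon resonance at 25 °C, antibody variants flowed as analytes over amine-coupled CD3ε homodimer on a CM4 chip, variant binding amount divided by that of GLS3000 antibody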
Entry flag: criterion met if ratio of amounts bound (vs GLS3000) reaches 0.6; criterion not met if it does not.

Does GLS3000 R29A (antibody, name in Kabat numbering, V domains shown, one-arm format as m2) VH: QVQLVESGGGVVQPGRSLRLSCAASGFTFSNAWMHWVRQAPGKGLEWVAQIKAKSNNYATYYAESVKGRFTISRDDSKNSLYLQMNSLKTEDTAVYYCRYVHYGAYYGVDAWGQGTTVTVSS VL: DIVMTQSPLSLPVTPGEPASISCRSSQSLVHSNANTYLHWYQQKPGQAPRLLIYKVSNRFSGVPDRFSGSGSGTDFTLKISRVEAEDVGVYYCGQGTQVPYTFGQGTKLEIK have a reported ratio of amounts bound (vs GLS3000) of at least 0.6?
criterion met

Another binder to look at: GLS3000 G89L (antibody, name in Kabat numbering, V domains shown, one-arm format as m2) VH: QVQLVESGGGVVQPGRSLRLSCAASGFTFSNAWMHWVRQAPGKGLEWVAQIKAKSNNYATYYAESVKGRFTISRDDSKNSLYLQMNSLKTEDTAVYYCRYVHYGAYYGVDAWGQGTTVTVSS VL: DIVMTQSPLSLPVTPGEPASISCRSSQSLVHSNRNTYLHWYQQKPGQAPRLLIYKVSNRFSGVPDRFSGSGSGTDFTLKISRVEAEDVGVYYCLQGTQVPYTFGQGTKLEIK
criterion met

Can you handle GLS3000 T97P (antibody, name in Kabat numbering, V domains shown, one-arm format as m2) VH: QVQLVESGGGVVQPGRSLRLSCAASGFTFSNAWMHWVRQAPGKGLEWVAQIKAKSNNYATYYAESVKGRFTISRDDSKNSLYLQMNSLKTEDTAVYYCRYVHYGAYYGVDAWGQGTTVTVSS VL: DIVMTQSPLSLPVTPGEPASISCRSSQSLVHSNRNTYLHWYQQKPGQAPRLLIYKVSNRFSGVPDRFSGSGSGTDFTLKISRVEAEDVGVYYCGQGTQVPYPFGQGTKLEIK next?
criterion not met

Note, next up: GLS3000 S25T (antibody, name in Kabat numbering, V domains shown, one-arm format as m2) VH: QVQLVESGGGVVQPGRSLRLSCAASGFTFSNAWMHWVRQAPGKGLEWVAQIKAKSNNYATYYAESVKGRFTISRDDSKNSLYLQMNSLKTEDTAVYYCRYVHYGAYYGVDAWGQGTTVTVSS VL: DIVMTQSPLSLPVTPGEPASISCRTSQSLVHSNRNTYLHWYQQKPGQAPRLLIYKVSNRFSGVPDRFSGSGSGTDFTLKISRVEAEDVGVYYCGQGTQVPYTFGQGTKLEIK
criterion met

And then GLS3000 T92E (antibody, name in Kabat numbering, V domains shown, one-arm format as m2) VH: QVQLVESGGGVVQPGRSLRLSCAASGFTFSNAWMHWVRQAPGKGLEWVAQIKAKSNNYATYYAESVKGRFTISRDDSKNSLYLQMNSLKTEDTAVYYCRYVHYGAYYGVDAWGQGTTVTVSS VL: DIVMTQSPLSLPVTPGEPASISCRSSQSLVHSNRNTYLHWYQQKPGQAPRLLIYKVSNRFSGVPDRFSGSGSGTDFTLKISRVEAEDVGVYYCGQGEQVPYTFGQGTKLEIK , what is it?
criterion not met
